# Species: Cavia porcellus
# test description: Dissociation constant was evaluated on guinea pig bladder at M3 muscarinic receptor
For each entry below, report its -Log Kd value.

Here are 3 compounds together with their reported answers.
C[C@@H]1O[C@H](C[N+](C)(C)C)C[C@H]1F	4.39
C[C@H]1O[C@@H](C[N+](C)(C)C)CC1(F)F	3.71
C[C@@H]1O[C@H](C[N+](C)(C)C)CC1(F)F	4.4

Now consider a different compound.
May I ask what -Log Kd has been recorded for C[C@@H]1O[C@H](C[N+](C)(C)C)C[C@H]1O (racemic) [MUSCARINE] ?
4.62

----------
# study system: UniProtKB Q8VH26
# Sequence (Q8VH26 1-587): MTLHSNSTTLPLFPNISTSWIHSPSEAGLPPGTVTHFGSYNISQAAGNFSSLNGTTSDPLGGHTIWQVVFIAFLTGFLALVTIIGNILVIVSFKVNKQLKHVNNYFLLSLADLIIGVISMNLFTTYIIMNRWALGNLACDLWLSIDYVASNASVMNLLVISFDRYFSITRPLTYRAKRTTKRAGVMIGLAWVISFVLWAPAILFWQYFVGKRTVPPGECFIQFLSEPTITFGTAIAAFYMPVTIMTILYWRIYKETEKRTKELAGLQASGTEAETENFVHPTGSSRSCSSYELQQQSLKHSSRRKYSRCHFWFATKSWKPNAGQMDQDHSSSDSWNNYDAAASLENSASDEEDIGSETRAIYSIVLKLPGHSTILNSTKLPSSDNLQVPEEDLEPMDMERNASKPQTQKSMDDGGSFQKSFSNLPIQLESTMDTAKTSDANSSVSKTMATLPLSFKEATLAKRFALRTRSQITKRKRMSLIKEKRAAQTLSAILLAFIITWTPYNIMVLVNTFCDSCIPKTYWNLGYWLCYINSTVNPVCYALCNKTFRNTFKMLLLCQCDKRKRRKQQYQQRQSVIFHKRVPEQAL
# test description: Intrinsic adtivitiy was measured by the ratio between the maximum response and the maximum response of muscarine in guinea pig ileum at Muscarinic acetylcholine receptor M3
# Format: functional, tissue-based
endpoint label: Intrinsic activity

C[C@H]1O[C@H](C[N+](C)(C)C)CC1(F)F	0.99
C[C@@H]1O[C@H](C[N+](C)(C)C)C[C@H]1O (racemic)	1
C[C@@H]1O[C@H](C[N+](C)(C)C)C[C@H]1F	0.95

Provide Intrinsic activity for all items below, preserving their order.
1. C[C@@H]1O[C@@H](C[N+](C)(C)C)CC1(F)F
2. C[C@@H]1O[C@H](C[N+](C)(C)C)CC1(F)F
3. C[C@H]1O[C@@H](C[N+](C)(C)C)CC1(F)F

1: 0.97; 2: 0.99; 3: 0.98
